TGT: T1, HCV Core1-169 recombinant antigen (hepatitis C virus (HCV-1), UniProt P26664 1-169)
T1 sequence: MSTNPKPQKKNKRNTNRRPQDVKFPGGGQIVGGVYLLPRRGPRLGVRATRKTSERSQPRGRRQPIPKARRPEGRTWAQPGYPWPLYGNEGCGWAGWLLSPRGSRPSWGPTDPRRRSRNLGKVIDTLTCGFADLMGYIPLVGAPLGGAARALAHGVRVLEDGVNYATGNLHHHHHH
PROCEDURE_SUMMARY: sandwich EIA, 25 ng/ml core1-169; capture mAb 208B-741
TEST_READOUT: OD492 nm (OD492)

• HCV 208B-1096 monoclonal antibody (antibody, V domains shown) VH: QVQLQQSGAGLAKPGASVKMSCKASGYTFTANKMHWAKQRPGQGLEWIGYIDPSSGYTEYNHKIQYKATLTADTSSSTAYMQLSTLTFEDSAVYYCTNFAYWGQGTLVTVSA VL: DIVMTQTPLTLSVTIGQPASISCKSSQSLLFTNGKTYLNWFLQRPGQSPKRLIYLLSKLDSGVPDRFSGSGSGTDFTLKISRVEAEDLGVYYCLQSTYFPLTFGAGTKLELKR = 0.23
• 208B-395-334 monoclonal antibody (antibody, V domains shown) VH: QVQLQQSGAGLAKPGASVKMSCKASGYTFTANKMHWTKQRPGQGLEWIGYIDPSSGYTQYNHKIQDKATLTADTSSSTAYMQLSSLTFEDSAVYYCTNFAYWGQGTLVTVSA VL: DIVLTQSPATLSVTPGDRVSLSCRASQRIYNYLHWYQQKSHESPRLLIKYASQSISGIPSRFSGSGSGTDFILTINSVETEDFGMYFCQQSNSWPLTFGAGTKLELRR = 0.21
